assayed.target: HLA-A02:01 (human)
measurement.notes: peptide-HLA stability, Example 41
experimental.setup: remark: other sources report otherwise
reported.metric: Stability (1/2 hr) (h)

>  <binder>
MQLMPFGCLL

>  <endpoint.result>
0.381

$$$$
>  <binder>
STVQLIMQL

>  <endpoint.result>
0

$$$$

P: MQLMPFGCL
Q: LIMQLMPFG
(Q) Thinking about recorded Stability (1/2 hr) values, which is higher, P or Q ? Selection: enter the item's label.
(A) P
(P: 0.368 h, Q: 0 h)
